Listed below: protein stability index values for each entry.
B1: PKD2L1 (parent)
chain: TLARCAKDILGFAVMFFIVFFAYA

variants of: B1; experiment: protein stability index of a GFP-peptide fusion (GPS, HEK-293T) (PSI 1-6); higher = more stable; conditions: c terminus: a fixed tail appended;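 further: lentivirally expressed fusions sorted by FACS into six bins by GFP to DsRed ratio, PSI derived from sequencing read proportions per bin multiplied by bin number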
readoutLabel: protein stability index

1. A22F
1.98
2. F20R
2.42
3. L10H
1.83
4. A24L
3.01
5. G11L
1.73
6. A6H
2.59
7. F16N
2.6
8. V14G
1.9
9. D8N
1.91
10. I9R
1.74
11. F17W
1.91
12. F12H
1.93
13. C5M
3.55
14. T1N
2.67
15. M15E
2.61
16. G11A
1.41
17. V14T
2.07
18. I18C
2.29
19. L2S
2.73
20. G11M
1.48
21. T1M
4.2
22. I9S
2.6
23. L2A
3.81
24. A13C
2.25
25. V14I
1.86
26. I9H
2.46
27. F16M
2.98
28. R4K
2.6
29. A3V
1.94
30. A3G
1.71
31. A6T
3
32. A3H
2.4
33. Y23G
2.6
34. C5K
2.48
35. A6Y
3.06
36. L10T
3.28
37. A3K
2.74
38. T1K
3.97
39. Y23L
2.34
40. Y23V
2.37
41. V19S
2.36
42. F17I
2.44
43. F16H
2.28
44. I9D
1.64
45. I18T
1.74
46. K7E
2.36
47. A6N
3.44
48. F16P
1.96
49. A13D
1.84
50. A13H
2.15
51. I9M
3.48
52. Y23H
2.27
53. F12S
1.89
54. Y23A
1.7
55. A6P
3.24
56. I9T
1.58
57. F17Q
1.98
58. I18D
3.03
59. F21G
2.08
60. G11W
1.06
61. F12E
1.44
62. Y23P
2.51
63. G11V
1.74
64. R4C
2.28
65. F20H
2.07
66. A13L
2.63
67. R4P
2.65
68. L10C
2.79
69. T1R
1.72
70. D8K
2.07
71. F21Y
3.96
72. D8M
2.76
73. A22H
2.35
74. T1C
2.98
75. R4A
2.72
76. F16A
2.21
77. M15N
1.32
78. K7G
2.45
79. A24K
2.06
80. F16K
4.35
81. F20E
2.77
82. F21T
2.88
